Data origin, for the record: ChEMBL document CHEMBL4414651

MEASURED ON: WD repeat-containing protein 5 (Homo sapiens)
pKd: −log10 of the molar value.
Classification field: enter T for pKd values not below 7, F for values below it.

Consider the worked cases shown below.
SMILES STR: CS(=O)(=O)c1cc(Cl)cc(NS(=O)(=O)c2cc(Br)ccc2O)c1
MEASURED ON: WD repeat-containing protein 5 (Homo sapiens)
GROUP: F

SMILES STR: COc1ccc(I)cc1S(=O)(=O)Nc1cc(Cl)ccc1O
MEASURED ON: WD repeat-containing protein 5 (Homo sapiens)
GROUP: F

SMILES STR: CS(=O)(=O)c1cc(Cl)cc(NS(=O)(=O)c2cc(Br)ccc2O)c1O
MEASURED ON: WD repeat-containing protein 5 (Homo sapiens)
GROUP: F

SMILES STR: CS(=O)(=O)c1cc(NS(=O)(=O)c2cc(Br)cc(Cl)c2O)cc(C2(C#N)CCC2)c1
MEASURED ON: WD repeat-containing protein 5 (Homo sapiens)
GROUP: F

SMILES STR: CNC(=O)c1c(O)c(NS(=O)(=O)c2cc(Br)cc(Cl)c2O)cc(C2CC2)c1F
MEASURED ON: WD repeat-containing protein 5 (Homo sapiens)
GROUP: F

SMILES STR: O=S(=O)(Nc1cc(Cl)ccc1O)c1cccc(Br)c1
MEASURED ON: WD repeat-containing protein 5 (Homo sapiens)
GROUP: F

SMILES STR: CNC(=O)c1cc(C2(C#N)CCCCC2)cc(NS(=O)(=O)c2cc(Br)cc(Cl)c2O)c1O
MEASURED ON: WD repeat-containing protein 5 (Homo sapiens)
GROUP: F

SMILES STR: COc1ccc(Cl)cc1S(=O)(=O)Nc1cc(Cl)ccc1O
MEASURED ON: WD repeat-containing protein 5 (Homo sapiens)
GROUP: F

Please check the record O=S(=O)(Nc1cc(C2(C(F)(F)F)CC2)ccc1O)c1cc(Br)ccc1O and state if its pKd is at or above 7.
F

Quick one: COc1ccc(Br)cc1S(=O)(=O)Nc1cc(Cl)cc(S(C)(=O)=O)c1O
F

----------
MEASURED ON: WD repeat-containing protein 5 (Homo sapiens, UniProt P61964)
Threshold 500 nM: Kd strictly smaller gives label 1, otherwise label 0.

Consider the worked cases shown below.
SMILES STR: O=C(O)c1cc(Cl)cc(NS(=O)(=O)c2cc(Br)ccc2O)c1
MEASURED ON: WD repeat-containing protein 5 (Homo sapiens, UniProt P61964)
GROUP: label 0
//
SMILES STR: O=S(=O)(Nc1cc(C2CC2)ccc1O)c1cc(Br)ccc1O
MEASURED ON: WD repeat-containing protein 5 (Homo sapiens, UniProt P61964)
GROUP: label 0
//
SMILES STR: COc1ccc(Br)cc1S(=O)(=O)Nc1cc(-c2ccccc2)ccc1O
MEASURED ON: WD repeat-containing protein 5 (Homo sapiens, UniProt P61964)
GROUP: label 0
//
SMILES STR: CNC(=O)c1c(O)c(NS(=O)(=O)c2cc(Br)ccc2O)cc(C2CC2)c1F
MEASURED ON: WD repeat-containing protein 5 (Homo sapiens, UniProt P61964)
GROUP: label 0
//
SMILES STR: O=C(O)c1cc(NS(=O)(=O)c2cc(Br)cc(Cl)c2O)cc(S(F)(F)(F)(F)F)c1
MEASURED ON: WD repeat-containing protein 5 (Homo sapiens, UniProt P61964)
GROUP: label 1

Is the reported Kd for N#CC1(c2ccc(O)c(NS(=O)(=O)c3cc(Br)ccc3O)c2)CCCC1 strictly below 500 nM?
label 0

Quick one: CS(=O)(=O)c1cc(NS(=O)(=O)c2cc(Br)cc(Cl)c2O)cc(S(F)(F)(F)(F)F)c1
label 1
